Cited source: the supplement of paper PMC10646978

Test system: RAW-Dual (murine macrophage reporter line)
Test Method Notes: IRF reporter (Lucia luciferase) activity fold change vs agonist alone; higher = enhanced IRF activity
Experimental Context: modulator concentration 10 µM; agonist: 3'3'-cGAMP 10 ug/mL
Parameter Measured: IRF reporter
Field format: numeric only.

Below are worked cases with known answers.
S=C(NC12CC3CC(CC(C3)C1)C2)N1CCOCC1
1.01
O=C(COC(=O)c1ccc2ccccc2n1)c1ccc(Br)cc1
0.972
CN(Cc1cnc2nc(N)nc(N)c2n1)c1ccc(C(=O)N[C@@H](CCC(=O)O)C(=O)O)cc1
0.612
COC(=O)C1=C(C)NC(C)=C(C(=O)OCC(C)C)C1c1ccccc1[N+](=O)[O-] (centres undefined)
0.371
Cc1c(C)c2c(c(C)c1O)CCC(C)(C(=O)O)O2 (centres undefined)
0.986
CC(=O)Nc1ccc(C(=O)CSc2nnc[nH]2)cc1
0.916
O=C(Nc1cc(C(F)(F)F)cc(C(F)(F)F)c1)c1ccc([N+](=O)[O-])cc1
0.998
O=C(NCCN1CCOCC1)c1ccc(Cl)cc1
0.95

Output measured IRF reporter for this item: "O=C(NCCN1CCN(c2ccc(Cl)cc2)CC1)c1ccncc1" 1.01

Output measured IRF reporter for this item: O=C(NCC(O)Cc1ccccc1)Nc1ccc(F)cc1 (centres undefined) 1.04

Output measured IRF reporter for this item: "O=C(CCn1c(=O)oc2ccccc21)Nc1ccncc1" 0.996

Output measured IRF reporter for this item: CCOC(=O)C(CCc1ccccc1)NC(C)C(=O)N1Cc2ccccc2CC1C(=O)O.Cl (centres undefined) 0.955

Output measured IRF reporter for this item: "O=c1[nH]cc(F)c(=O)[nH]1" 1.1

Output measured IRF reporter for this item: CC(C)(C)C1CCc2c(sc(NC(=O)c3ccc(F)cc3)c2C(N)=O)C1 (centres undefined) 0.914

Output measured IRF reporter for this item: Cc1nccn1CC1CCc2c(c3ccccc3n2C)C1=O.Cl (centres undefined) 0.889

Output measured IRF reporter for this item: CC(=O)Nc1ccc(CC(=O)N2C3C=CCC2CC3)cc1 (centres undefined) 1.01

Output measured IRF reporter for this item: COc1cc2nc(N3CCN(C(=O)C4COc5ccccc5O4)CC3)nc(N)c2cc1OC.CS(=O)(=O)O (centres undefined) 0.273

====

System: RAW-Dual (murine macrophage reporter line)
Test Method Notes: IRF reporter (Lucia luciferase) activity fold change vs agonist alone; higher = enhanced IRF activity
Experimental Context: modulator concentration 10 µM; agonist: 3'3'-cGAMP 10 ug/mL
Parameter Measured: IRF reporter
Field format: numeric only.

Below are worked cases with known answers.
O=S(=O)(Oc1cccc2ccccc12)c1ccc(F)cc1
0.789
CCCCCCCCCCCCCCCCOc1nc2ccc(C)cc2c(=O)o1
0.921

Let us move to another entry and its IRF reporter.
Output measured IRF reporter for this item: "CCOC(=O)c1ncn2c1CN(C)C(=O)c1cc(F)ccc1-2" 0.912

====

Tested on: RAW-Dual (murine macrophage reporter line)
Test Method Notes: NF-kB reporter (SEAP) activity fold change vs agonist alone; higher = enhanced NF-kB activity
Experimental Context: modulator concentration 10 µM; agonist: LPS 0.1 ug/mL
As shown below, each of these compounds has a reported NF-kB reporter value.
Field format: numeric only.

Output measured NF-kB reporter for this item: "Fc1ccc2ccccc2c1" 0.979

Output measured NF-kB reporter for this item: "CC(NCCc1c[nH]c2ccccc12)=C1C(=O)c2ccccc2C1=O" 0.979
